tgt: Collagenase 3 (Homo sapiens)
measurement-notes: inhibition of MMP13 collagenase activity – biochemical, FRET peptide cleavage, primary screen (AID 570);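 also: 0% = DMSO wells and 100% = wells with reference MMP-13 inhibitor after basal subtraction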
condition-details: MMP-13 fTHP FRET cleavage, Mca fluorescence; at 4 µM; active compounds read high
Out of some 65,000 compounds screened, about 45 (0.07%) were called active. This is one part of a sample in which actives are shown more often than they occur.
metric: inhibition (%)
Expressed in %, but write only the number.

Some solved entries appear below for comparison.
[
  {
    "molecule": "CCOC(=O)CNC(=O)CSc1nnc(-c2cccc(OC)c2)n1CC",
    "tgt": "Collagenase 3 (Homo sapiens)",
    "inhibition / %": 3.6
  },
  {
    "molecule": "CCc1c(C)nc(N2CCN(Cc3ccccc3)CC2)[nH]c1=O",
    "tgt": "Collagenase 3 (Homo sapiens)",
    "inhibition / %": -7.8
  },
  {
    "molecule": "CC1(C)Cc2ccccc2-c2nnc(-c3cccc(O)c3)n21",
    "tgt": "Collagenase 3 (Homo sapiens)",
    "inhibition / %": -1.1
  },
  {
    "molecule": "Cn1c(=O)c2c(nc(SCCNS(=O)(=O)c3ccccc3)n2C)n(C)c1=O",
    "tgt": "Collagenase 3 (Homo sapiens)",
    "inhibition / %": -2.9
  },
  {
    "molecule": "COc1ccc(C2C(C(=O)N3CCN(c4ccc(OC)cc4)CC3)c3ccccc3C(=O)N2C)cc1 (stereo unspecified)",
    "tgt": "Collagenase 3 (Homo sapiens)",
    "inhibition / %": 2.8
  },
  {
    "molecule": "COc1ccc(CNC2CCCCC2)cc1",
    "tgt": "Collagenase 3 (Homo sapiens)",
    "inhibition / %": 5.3
  },
  {
    "molecule": "COC(=O)c1ccc(NC(=O)CSc2nnc(Cc3cccn3C)n2-c2ccc(F)cc2)cc1",
    "tgt": "Collagenase 3 (Homo sapiens)",
    "inhibition / %": -0.2
  },
  {
    "molecule": "CCOC(=O)N1CCN(S(=O)(=O)c2cc(Br)cc3c2N(C(=O)C2CC2)CC3)CC1",
    "tgt": "Collagenase 3 (Homo sapiens)",
    "inhibition / %": 3
  }
]

Asked: Look at this molecule and give its reported inhibition. O=C(Cn1c(-c2cncs2)nc2ccccc21)NC1CCCC1
Given back: -3.3

Asked: How about CC(C)C[C@H](NC(=O)[C@@H]1O[C@H]1C(=O)O)C(=O)NCCCCN=C(N)N ?
Given back: 0.7

Asked: How about COC(=O)c1c(-c2ccc(C)cc2)csc1N ?
Given back: -8.5
